Biological target: human pIgR, full-length, on cells (human, UniProt P01833 19-764)
Sequence (P01833 19-764): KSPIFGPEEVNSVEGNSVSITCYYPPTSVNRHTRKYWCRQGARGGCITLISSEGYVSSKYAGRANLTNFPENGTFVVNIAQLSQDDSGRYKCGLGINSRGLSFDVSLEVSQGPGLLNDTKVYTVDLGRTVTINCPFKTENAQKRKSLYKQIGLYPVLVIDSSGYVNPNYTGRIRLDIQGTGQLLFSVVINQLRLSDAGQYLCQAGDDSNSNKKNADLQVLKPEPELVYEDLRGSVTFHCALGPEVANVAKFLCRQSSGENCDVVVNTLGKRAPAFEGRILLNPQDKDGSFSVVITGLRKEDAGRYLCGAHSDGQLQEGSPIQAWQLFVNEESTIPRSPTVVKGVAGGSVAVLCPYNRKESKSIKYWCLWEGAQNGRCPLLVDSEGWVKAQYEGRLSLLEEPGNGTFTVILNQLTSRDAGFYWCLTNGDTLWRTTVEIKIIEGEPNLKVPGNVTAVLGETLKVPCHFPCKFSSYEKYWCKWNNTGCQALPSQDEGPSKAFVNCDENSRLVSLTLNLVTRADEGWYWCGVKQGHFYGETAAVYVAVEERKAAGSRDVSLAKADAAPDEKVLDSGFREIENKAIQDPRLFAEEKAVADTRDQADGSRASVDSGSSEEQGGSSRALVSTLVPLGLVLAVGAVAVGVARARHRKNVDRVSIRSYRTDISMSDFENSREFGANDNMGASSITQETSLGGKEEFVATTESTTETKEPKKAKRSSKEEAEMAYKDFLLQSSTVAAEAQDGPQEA
Assay: cell-based or functional assay
The entries below come with measured Rev. Trans (Fold Incr.) values attached.
observation.type: Rev. Trans (Fold Incr.) (fold)

{"columns": ["binder", "readout.value"],
 "data": [
  ["VHH9-linker-mono-Fc protein (Fc fusion, made in CHO cells; also called VHH9-mono-Fc; hpIgR_221) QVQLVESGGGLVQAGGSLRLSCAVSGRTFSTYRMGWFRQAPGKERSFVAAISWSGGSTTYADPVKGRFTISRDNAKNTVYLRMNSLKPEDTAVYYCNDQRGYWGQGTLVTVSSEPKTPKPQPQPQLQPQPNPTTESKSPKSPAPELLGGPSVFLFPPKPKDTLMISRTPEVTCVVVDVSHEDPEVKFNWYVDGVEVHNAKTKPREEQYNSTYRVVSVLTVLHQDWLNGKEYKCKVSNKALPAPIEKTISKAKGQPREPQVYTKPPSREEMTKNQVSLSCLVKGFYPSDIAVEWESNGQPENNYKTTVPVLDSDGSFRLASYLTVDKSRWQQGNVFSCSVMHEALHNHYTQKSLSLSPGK", 6.6],
  ["VHH2-linker-mono-Fc protein (Fc fusion, also called VHH2-mono-Fc; mpIgR_338) EVQVVESGGGLVQAGGSLKLACAAPGLTFSSYRMGWFRQAPGQEREFVAAIDWNGRGTYYRYYADSVKGRSTISRDNAKNTVYLQMNSLKPEDTAVYYCAATTVLTDPRVLNEYATWGQGTQVTVSSEPKTPKPQPQPQLQPQPNPTTESKSPKSPAPELLGGPSVFLFPPKPKDTLMISRTPEVTCVVVDVSHEDPEVKFNWYVDGVEVHNAKTKPREEQYNSTYRVVSVLTVLHQDWLNGKEYKCKVSNKALPAPIEKTISKAKGQPREPQVYTKPPSREEMTKNQVSLSCLVKGFYPSDIAVEWESNGQPENNYKTTVPVLDSDGSFRLASYLTVDKSRWQQGNVFSCSVMHEALHNHYTQKSLSLSPGK", 5.7],
  ["VHH10-linker-mono-Fc protein (Fc fusion, made in CHO cells; also called VHH10-mono-Fc; hpIgR_225) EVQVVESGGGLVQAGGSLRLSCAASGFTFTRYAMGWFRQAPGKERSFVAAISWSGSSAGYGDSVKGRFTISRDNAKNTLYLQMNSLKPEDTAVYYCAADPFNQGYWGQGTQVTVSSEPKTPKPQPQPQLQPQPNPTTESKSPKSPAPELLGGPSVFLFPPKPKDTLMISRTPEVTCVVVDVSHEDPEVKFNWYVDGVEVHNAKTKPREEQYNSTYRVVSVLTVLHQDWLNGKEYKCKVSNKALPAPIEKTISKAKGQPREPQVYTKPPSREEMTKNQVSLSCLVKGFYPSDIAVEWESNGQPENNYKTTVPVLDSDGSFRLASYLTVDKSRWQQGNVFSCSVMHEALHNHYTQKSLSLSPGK", 3.4],
  ["VHH5-linker-mono-Fc protein (Fc fusion, made in CHO cells; also called VHH5-mono-Fc; hpIgR_175) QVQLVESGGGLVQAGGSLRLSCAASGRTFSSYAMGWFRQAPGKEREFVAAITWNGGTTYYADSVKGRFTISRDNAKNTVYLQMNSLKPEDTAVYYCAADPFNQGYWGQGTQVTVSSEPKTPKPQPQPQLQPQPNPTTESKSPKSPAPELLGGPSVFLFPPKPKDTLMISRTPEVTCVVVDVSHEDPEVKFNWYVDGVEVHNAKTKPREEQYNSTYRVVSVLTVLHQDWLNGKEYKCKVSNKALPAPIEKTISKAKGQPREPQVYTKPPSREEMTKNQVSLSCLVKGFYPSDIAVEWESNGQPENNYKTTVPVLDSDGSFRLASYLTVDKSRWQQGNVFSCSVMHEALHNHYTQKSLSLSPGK", 2.1]
]}
